test: Plasma pharmacokinetics of BI 187004 after single oral doses (LC–MS/MS); details: male, human, plasma, po, 240 mg, BI 187004 plasma concentrations, Median, 240 mg single oral, planned time 24 h
recorded metric: concentration at 24 h
Note: a bare number is incomplete; add the unit.

Exam item: Data request, read-out concentration at 24 h, for N#Cc1ccc2c(c1)[C@H]1CCCN(C(=O)c3ccc4[nH]cnc4c3)[C@H]1C2 [BI 187004]
Marked response: 2320 nM

###

assay: Plasma pharmacokinetics of BI 187004 after single oral doses (LC–MS/MS); details: male, human, plasma, po, 360 mg, BI 187004 plasma concentrations, Min, 360 mg single oral, planned time 6 h
recorded metric: concentration at 6 h
Note: a bare number is incomplete; add the unit.

Exam item: Data request, read-out concentration at 6 h, for "N#Cc1ccc2c(c1)[C@H]1CCCN(C(=O)c3ccc4[nH]cnc4c3)[C@H]1C2"
Marked response: 5.79 µM

###

experiment: Plasma pharmacokinetics of BI 187004 after single oral doses (LC–MS/MS); settings: male, human, plasma, po, 240 mg, BI 187004 plasma concentrations, gMean, 240 mg single oral, planned time 1 h
recorded metric: concentration at 1 h (µM)
Numbers only; they are read as µM.

Exam item: Data request, read-out concentration at 1 h, for "N#Cc1ccc2c(c1)[C@H]1CCCN(C(=O)c3ccc4[nH]cnc4c3)[C@H]1C2"
Marked response: 5.34

###

assay: Plasma pharmacokinetics of BI 187004 after single oral doses (LC–MS/MS); conditions: male, human, plasma, po, 40 mg, BI 187004 plasma concentrations, 40 mg single oral, planned time 24 h, Mean
recorded metric: concentration at 24 h (nM)
Numbers only; they are read as nM.

Exam item: Data request, read-out concentration at 24 h, for "N#Cc1ccc2c(c1)[C@H]1CCCN(C(=O)c3ccc4[nH]cnc4c3)[C@H]1C2"
Marked response: 353

###

assay: Plasma pharmacokinetics of BI 187004 after single oral doses (LC–MS/MS); settings: male, human, plasma, po, 5 mg, Plasma concentration Median, 5 mg single oral; 0.5 h
recorded metric: concentration at 0.5 h (µM)
Numbers only; they are read as µM.

Exam item: Data request, read-out concentration at 0.5 h, for "N#Cc1ccc2c(c1)[C@H]1CCCN(C(=O)c3ccc4[nH]cnc4c3)[C@H]1C2"
Marked response: 0.128

###

experiment: Plasma pharmacokinetics of BI 187004 after single oral doses (LC–MS/MS); conditions: male, human, plasma, po, 240 mg, BI 187004 plasma concentrations, Max, 240 mg single oral, planned time 5 h
recorded metric: concentration at 5 h (µM)
Numbers only; they are read as µM.

Exam item: Data request, read-out concentration at 5 h, for N#Cc1ccc2c(c1)[C@H]1CCCN(C(=O)c3ccc4[nH]cnc4c3)[C@H]1C2 [BI 187004]
Marked response: 6.78

###

test: BI 187004 concentration in subcutaneous adipose tissue biopsies (LC–MS/MS); type: in vivo, human; conditions: male, human, subcutaneous adipose tissue / plasma, oral; 360 mg single dose; 24 h; read-out: AT:plasma ratio (range) 24 h
recorded metric: Kp at 24 h
// response body must contain only the number

Exam item: Data request, read-out Kp at 24 h, for "N#Cc1ccc2c(c1)[C@H]1CCCN(C(=O)c3ccc4[nH]cnc4c3)[C@H]1C2"
Marked response: 11.4

###

test: Plasma pharmacokinetics of BI 187004 after single oral doses (LC–MS/MS); conditions: male, human, plasma, po, 5 mg, Plasma concentration gMean, 5 mg single oral; 1.5 h
recorded metric: concentration at 1.5 h (nM)
Numbers only; they are read as nM.

Exam item: Data request, read-out concentration at 1.5 h, for "N#Cc1ccc2c(c1)[C@H]1CCCN(C(=O)c3ccc4[nH]cnc4c3)[C@H]1C2"
Marked response: 134

###

assay: Plasma pharmacokinetics of BI 187004 after single oral doses (LC–MS/MS); details: male, human, plasma, po, 240 mg, BI 187004 plasma concentrations, Min, 240 mg single oral, planned time 6 h
recorded metric: concentration at 6 h (nM)
Numbers only; they are read as nM.

Exam item: Data request, read-out concentration at 6 h, for "N#Cc1ccc2c(c1)[C@H]1CCCN(C(=O)c3ccc4[nH]cnc4c3)[C@H]1C2"
Marked response: 452

###

experiment: Plasma pharmacokinetics of BI 187004 after single oral doses (LC–MS/MS); conditions: male, human, plasma, po, 80 mg, BI 187004 plasma concentrations, 80 mg single oral, planned time 36 h, Mean
recorded metric: concentration at 36 h
Note: a bare number is incomplete; add the unit.

Exam item: Data request, read-out concentration at 36 h, for N#Cc1ccc2c(c1)[C@H]1CCCN(C(=O)c3ccc4[nH]cnc4c3)[C@H]1C2 [BI 187004]
Marked response: 411 nM

###

test: Plasma pharmacokinetics of BI 187004 after single oral doses (LC–MS/MS); conditions: male, human, plasma, po, 160 mg, BI 187004 plasma concentrations, 160 mg single oral, planned time 24 h, Min
recorded metric: concentration at 24 h (nM)
Numbers only; they are read as nM.

Exam item: Data request, read-out concentration at 24 h, for N#Cc1ccc2c(c1)[C@H]1CCCN(C(=O)c3ccc4[nH]cnc4c3)[C@H]1C2 [BI 187004]
Marked response: 1360

###

experiment: Plasma pharmacokinetics of BI 187004 after single oral doses (LC–MS/MS); details: male, human, plasma, po, 80 mg, BI 187004 plasma concentrations, 80 mg single oral, planned time 2 h, Median
recorded metric: concentration at 2 h (nM)
Numbers only; they are read as nM.

Exam item: Data request, read-out concentration at 2 h, for N#Cc1ccc2c(c1)[C@H]1CCCN(C(=O)c3ccc4[nH]cnc4c3)[C@H]1C2 [BI 187004]
Marked response: 2400

###

experiment: Plasma pharmacokinetics of BI 187004 after single oral doses (LC–MS/MS); conditions: male, human, plasma, po, 20 mg, BI 187004 plasma concentrations, 20 mg single oral, planned time 96 h, gMean
recorded metric: concentration at 96 h (nM)
Numbers only; they are read as nM.

Exam item: Data request, read-out concentration at 96 h, for N#Cc1ccc2c(c1)[C@H]1CCCN(C(=O)c3ccc4[nH]cnc4c3)[C@H]1C2 [BI 187004]
Marked response: 9.42

###

assay: Plasma pharmacokinetics of BI 187004 after single oral doses (LC–MS/MS); conditions: male, human, plasma, po, 240 mg, BI 187004 plasma concentrations, Max, 240 mg single oral, planned time 48 h
recorded metric: concentration at 48 h (nM)
Numbers only; they are read as nM.

Exam item: Data request, read-out concentration at 48 h, for "N#Cc1ccc2c(c1)[C@H]1CCCN(C(=O)c3ccc4[nH]cnc4c3)[C@H]1C2"
Marked response: 794

###

experiment: Plasma pharmacokinetics of BI 187004 after single oral doses (LC–MS/MS); settings: male, human, plasma, po, 40 mg, BI 187004 plasma concentrations, 40 mg single oral, planned time 3 h, Max
recorded metric: concentration at 3 h
Note: a bare number is incomplete; add the unit.

Exam item: Data request, read-out concentration at 3 h, for "N#Cc1ccc2c(c1)[C@H]1CCCN(C(=O)c3ccc4[nH]cnc4c3)[C@H]1C2"
Marked response: 1810 nM

###

experiment: Plasma pharmacokinetics of BI 187004 after single oral doses (LC–MS/MS); conditions: male, human, plasma, po, 10 mg, Plasma concentration gMean, 10 mg single oral; 1 h
recorded metric: concentration at 1 h (nM)
Numbers only; they are read as nM.

Exam item: Data request, read-out concentration at 1 h, for N#Cc1ccc2c(c1)[C@H]1CCCN(C(=O)c3ccc4[nH]cnc4c3)[C@H]1C2 [BI 187004]
Marked response: 426

###

test: Plasma pharmacokinetics of BI 187004 after single oral doses (LC–MS/MS); conditions: male, human, plasma, po, 80 mg, BI 187004 plasma concentrations, 80 mg single oral, planned time 10 h, Median
recorded metric: concentration at 10 h (nM)
Numbers only; they are read as nM.

Exam item: Data request, read-out concentration at 10 h, for N#Cc1ccc2c(c1)[C@H]1CCCN(C(=O)c3ccc4[nH]cnc4c3)[C@H]1C2 [BI 187004]
Marked response: 1460

###

assay: Plasma pharmacokinetics of BI 187004 after single oral doses (LC–MS/MS); conditions: male, human, plasma, po, 240 mg, BI 187004 plasma concentrations, Median, 240 mg single oral, planned time 36 h
recorded metric: concentration at 36 h (nM)
Numbers only; they are read as nM.

Exam item: Data request, read-out concentration at 36 h, for N#Cc1ccc2c(c1)[C@H]1CCCN(C(=O)c3ccc4[nH]cnc4c3)[C@H]1C2 [BI 187004]
Marked response: 887

###

test: Plasma pharmacokinetics of BI 187004 after single oral doses (LC–MS/MS); settings: male, human, plasma, po, 2.5 mg, Plasma concentration, individual subjects, 2.5 mg single oral; planned time 72 h
recorded metric: concentration at 72 h (nM)
Numbers only; they are read as nM.

Exam item: Data request, read-out concentration at 72 h, for "N#Cc1ccc2c(c1)[C@H]1CCCN(C(=O)c3ccc4[nH]cnc4c3)[C@H]1C2"
Marked response: 3.34
